subject of test: papain (Carica papaya, UniProt P00784)
Construct: purchased Sigma Chem. Co
Sequence (P00784 134-345): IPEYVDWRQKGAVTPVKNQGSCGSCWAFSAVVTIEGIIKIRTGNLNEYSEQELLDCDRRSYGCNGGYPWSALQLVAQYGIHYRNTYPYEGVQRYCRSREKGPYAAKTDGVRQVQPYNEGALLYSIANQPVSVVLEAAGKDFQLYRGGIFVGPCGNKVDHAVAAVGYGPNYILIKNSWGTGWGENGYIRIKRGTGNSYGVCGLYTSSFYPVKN
experiment description: Papain inhibitory activity (milk casein digestion)
Type: biochemical
measurement conditions: papain 80 μg/ml 0.5 ml, cysteine, pH 6.8, 1% milk casein, 40° C., 10 minutes
measurement type: ID50 (amount of inhibitor for 50% inhibition)

>  <compound>
C[C@H]1CC[C@H](OC(=O)[C@@H]2O[C@H]2C(=O)O[C@H]2CC[C@H](C)CC2)CC1 (relative stereo) [EP-15]

>  <subject of test>
papain (Carica papaya, UniProt P00784)

>  <value>
1.69 γ

$$$$
>  <compound>
O=C(OCCCC1CCCC1)[C@@H]1O[C@H]1C(=O)OCCCC1CCCC1 (relative stereo) [EP-63, di-3-cyclopentanepropyl epoxysuccinate]

>  <subject of test>
papain (Carica papaya, UniProt P00784)

>  <value>
54.82 γ

$$$$
>  <compound>
O=C(OC1CCCC(Br)C1)C1OC1C(=O)OC1CCCC(Br)C1 (stereo not drawn) [EP-9, di-3'-cis-bromocyclohexyl epoxysuccinate]

>  <subject of test>
papain (Carica papaya, UniProt P00784)

>  <value>
2.20 γ

$$$$
>  <compound>
O=C(O)C1OC1C(=O)OC1CC2C=CC1C2 (stereo not drawn) [EP-58]

>  <subject of test>
papain (Carica papaya, UniProt P00784)

>  <value>
0.07 γ

$$$$
>  <compound>
CCOC(=O)C1OC1C(=O)N[C@@H](CCSC)C(=O)OC (stereo partly drawn) [EP-155]

>  <subject of test>
papain (Carica papaya, UniProt P00784)

>  <value>
9.20 γ

$$$$
>  <compound>
CCCCOC(=O)[C@H](CCCNC(=O)OCc1ccccc1)NC(=O)C1OC1C(=O)[O-].[K+] (stereo partly drawn) [EP-199]

>  <subject of test>
papain (Carica papaya, UniProt P00784)

>  <value>
0.14 γ

$$$$
>  <compound>
CCOC(=O)[C@H](Cc1ccccc1)NC(=O)C1OC1C(=O)OCc1ccccc1Cl (stereo partly drawn) [EP-160]

>  <subject of test>
papain (Carica papaya, UniProt P00784)

>  <value>
0.30 γ

$$$$
>  <compound>
CC(C)[C@H](NC(=O)C1OC1C(=O)OCc1ccc(Br)cc1)C(=O)OCc1ccccc1 (stereo partly drawn) [EP-162]

>  <subject of test>
papain (Carica papaya, UniProt P00784)

>  <value>
0.80 γ

$$$$
>  <compound>
O=C(O)[C@@H]1O[C@H]1C(=O)OCC1CCCC1 (relative stereo) [EP-44]

>  <subject of test>
papain (Carica papaya, UniProt P00784)

>  <value>
0.07 γ

$$$$
>  <compound>
O=C(N[C@@H](Cc1ccc(O)cc1)C(=O)OCc1ccccc1)C1OC1C(=O)OCC1CC=CCC1 (stereo partly drawn) [EP-211]

>  <subject of test>
papain (Carica papaya, UniProt P00784)

>  <value>
0.61 γ

$$$$
>  <compound>
O=C(OCC1CCCC1)[C@@H]1O[C@H]1C(=O)OCC1CCCC1 (relative stereo) [EP-43, dicyclopentanemethyl epoxysuccinate]

>  <subject of test>
papain (Carica papaya, UniProt P00784)

>  <value>
0.45 γ

$$$$
>  <compound>
O=C(O)[C@H]1O[C@@H]1C(=O)OCCc1ccccc1 (relative stereo) [EP-130, 2'-phenylethyl potassium epoxysuccinate]

>  <subject of test>
papain (Carica papaya, UniProt P00784)

>  <value>
0.10 γ

$$$$
>  <compound>
O=C(OCCc1ccccc1)[C@H]1O[C@@H]1C(=O)OCCc1ccccc1 (relative stereo) [EP-129, di-2'-phenylethyl epoxysuccinate]

>  <subject of test>
papain (Carica papaya, UniProt P00784)

>  <value>
0.78 γ

$$$$
>  <compound>
O=C(O)[C@@H]1O[C@H]1C(=O)OCC1CCCO1 (relative stereo) [EP-76]

>  <subject of test>
papain (Carica papaya, UniProt P00784)

>  <value>
0.82 γ

$$$$
>  <compound>
C[C@H]1CC[C@@H](OC(=O)[C@@H]2O[C@H]2C(=O)O)CC1 (relative stereo) [EP-18]

>  <subject of test>
papain (Carica papaya, UniProt P00784)

>  <value>
0.08 γ

$$$$

Origin of the recorded values: patent US4393228A
